assay: Label-free MST, peptide binding to SMA nanodiscs; conditions: label-free MST, SMA nanodiscs (anionic belt), 2500 nM AMP; apparent KD dominated by interaction with SMA polymer; mean ± SD of triplicates; read-out: SMA KD, DMPC (MST)
Residues, ends and D or L forms follow the SMILES beside them.
# key: entry, value: pKd
In textbook form, pKd equals minus log to base ten of the concentration in mol/L.

compound	numeric readout
NCCCC[C@@H]1NC(=O)[C@H](Cc2c[nH]c3ccccc23)NC(=O)[C@H](CCCCN)NC(=O)[C@H](Cc2c[nH]c3ccccc23)NC(=O)[C@H](CCCCN)NC(=O)[C@H](Cc2c[nH]c3ccccc23)NC1=O [compound 4] (cyclo(WKWKWK))	5.07
N=C(N)NCCC[C@@H]1NC(=O)[C@H](Cc2c[nH]c3ccccc23)NC(=O)[C@H](CCCNC(=N)N)NC(=O)[C@H](Cc2c[nH]c3ccccc23)NC(=O)[C@H](CCCNC(=N)N)NC(=O)[C@H](Cc2c[nH]c3ccccc23)NC1=O [compound 2] (cyclo(WRWRWR))	5.57

### Prompt # lookup: pKd of N=C(N)NCCC[C@@H]1NC(=O)[C@H](CCCNC(=N)N)NC(=O)[C@H](Cc2c[nH]c3ccccc23)NC(=O)[C@H](Cc2c[nH]c3ccccc23)NC(=O)[C@H](Cc2c[nH]c3ccccc23)NC(=O)[C@H](CCCNC(=N)N)NC1=O [compound 1] (cyclo(WWWRRR))
### Response 5.92

### Prompt Now the compound NCCCC[C@@H]1NC(=O)[C@H](CCCCN)NC(=O)[C@H](Cc2c[nH]c3ccccc23)NC(=O)[C@H](Cc2c[nH]c3ccccc23)NC(=O)[C@H](Cc2c[nH]c3ccccc23)NC(=O)[C@H](CCCCN)NC1=O [compound 3] (cyclo(WWWKKK))
### Response 5.96

====

# key: entry, value: SMA-QA KP, DMPC/PG (MST)
test: Label-free MST, peptide binding to SMA-QA nanodiscs; settings: partition coefficient from initial fluorescence on MST instrument, SMA-QA nanodiscs, hyperbolic fit; ± SD of triplicate fits
Non-standard residues stand in square brackets, D forms with d. Residues, ends and D or L forms follow the SMILES beside them.

These recorded examples may help you get a feel for the data.
compound	SMA-QA KP, DMPC/PG (MST)
N=C(N)NCCC[C@@H]1NC(=O)[C@H](CCCNC(=N)N)NC(=O)[C@H](Cc2c[nH]c3ccccc23)NC(=O)[C@H](Cc2c[nH]c3ccccc23)NC(=O)[C@H](Cc2c[nH]c3ccccc23)NC(=O)[C@H](CCCNC(=N)N)NC1=O [compound 1] (cyclo(WWWRRR))	7.63 ± 1.89 × 10^3
NCCCC[C@@H]1NC(=O)[C@H](CCCCN)NC(=O)[C@H](Cc2c[nH]c3ccccc23)NC(=O)[C@H](Cc2c[nH]c3ccccc23)NC(=O)[C@H](Cc2c[nH]c3ccccc23)NC(=O)[C@H](CCCCN)NC1=O [compound 3] (cyclo(WWWKKK))	4.93 ± 0.81 × 10^3
NCCCC[C@@H]1NC(=O)[C@H](Cc2c[nH]c3ccccc23)NC(=O)[C@H](CCCCN)NC(=O)[C@H](Cc2c[nH]c3ccccc23)NC(=O)[C@H](CCCCN)NC(=O)[C@H](Cc2c[nH]c3ccccc23)NC1=O [compound 4] (cyclo(WKWKWK))	3.23 ± 1.87 × 10^3

### Prompt # lookup: SMA-QA KP, DMPC/PG (MST) of CC(C)C[C@@H]1NC(=O)[C@@H](CCCNC(=N)N)NC(=O)[C@H](CCCCN)NC(=O)[C@H](CC(N)=O)NC(=O)[C@@H](Cc2c[nH]c3ccccc23)NC(=O)[C@H](Cc2c[nH]c3ccccc23)NC1=O [compound 5] (cyclo(LW[dW]NK[dR]))
### Response 3.35 ± 0.57 × 10^3

### Prompt Now the compound N=C(N)NCCC[C@@H]1NC(=O)[C@H](Cc2c[nH]c3ccccc23)NC(=O)[C@H](CCCNC(=N)N)NC(=O)[C@H](Cc2c[nH]c3ccccc23)NC(=O)[C@H](CCCNC(=N)N)NC(=O)[C@H](Cc2c[nH]c3ccccc23)NC1=O [compound 2] (cyclo(WRWRWR))
### Response 12.62 ± 4.16 × 10^3
